System: OVCAR-3 ovarian
Pick one and only one: y for active, n for inactive

Some solved cases for reference:
Query: recorded result category for CCN(Cc1ccccc1F)c1ccc(CO)c(Cl)c1 in this test
y

Query: recorded result category for COc1cc(C(=O)N2CCN(c3ccccn3)CC2)c(N)cc1OCc1ccccc1 in this test
n

Query: recorded result category for c1ccc2nc3c(cc2c1)Sc1cc2ccccc2[n+]2c1N3CC2 in this test
n

New cases:
Query: recorded result category for COc1cc(/C=C2\CN(S(=O)(=O)c3ccc(C)cc3)C/C(=C\c3cc(CN4CCOCC4)c(O)c(OC)c3)C2=O)cc(CN2CCOCC2)c1O in this test
n

Query: recorded result category for O=C(CI)OCC(COC(=O)CI)OC(=O)CI in this test
n

Query: recorded result category for c1ccc(CSCCNCCN(CCNCCSCc2ccccc2)CCNCCSCc2ccccc2)cc1 in this test
n

Query: recorded result category for O=C1Nc2ccccc2/C1=C/C(=O)c1ccc(N2CCCC2)cc1 in this test
n

Source listed as PubChem BioAssay (NCI).
